# assay_system: Recombinant human HSD17B13 enzyme (Homo sapiens (Human), UniProt Q7Z5P4)
# Sequence (Q7Z5P4 20-300): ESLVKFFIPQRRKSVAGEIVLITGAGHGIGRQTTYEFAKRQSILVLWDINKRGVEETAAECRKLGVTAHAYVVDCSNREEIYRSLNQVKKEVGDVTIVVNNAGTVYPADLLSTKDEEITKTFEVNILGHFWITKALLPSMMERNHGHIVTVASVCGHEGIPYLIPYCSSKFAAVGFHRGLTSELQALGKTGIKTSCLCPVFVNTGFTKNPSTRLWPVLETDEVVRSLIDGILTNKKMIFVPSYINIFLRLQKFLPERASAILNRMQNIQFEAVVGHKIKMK
# test_name: HSD17b13 NAD(P)H-Glo Biochemical Assay
# run_parameters: 50 uM estradiol, 1 mM NAD+; read-out: HSD17β13 IC50
assay_readout: IC50

Guide cases for IC50, answers given:
# mol_smiles, IC50
measured = [
    ("CNC(=O)N1CCC(c2ccc3c(cnn3-c3ccc(F)c(O)c3)c2)CC1", "100 to 1000 nM"),
    ("CC(C)S(=O)(=O)NC1CN(c2cc3cnn(-c4cc(O)c(F)c(F)c4)c3cc2Cl)C1", "100 to 1000 nM"),
    ("CS(=O)(=O)C1CN(c2ccc3c(cnn3-c3cc(O)c(F)c(F)c3)c2)C1", "100 to 1000 nM"),
    ("Cc1nn(-c2cc(C(F)(F)F)c(F)c(O)c2F)c2cnc(N3CCNCC3)nc12", "1000 to 30000 nM"),
    ("CS(=O)(=O)N1CCN(c2cc3cn(-c4cc(O)cc(OC(F)(F)F)c4)nc3cn2)CC1", "1000 to 30000 nM"),
]

Now consider a different molecule.
Identify measured IC50 corresponding to CS(=O)(=O)N1CCN(c2cc3cnn(-c4cc(O)ccc4C#N)c3cn2)CC1 1000 to 30000 nM

Entry source: patent US20240034736A1
